- procedureText: ATG_NRF2_ARE_CIS: Attagene CIS-FACTORIAL HepG2 Assay for human Nuclear Factor Erythroid 2 Related Factor 2 (NFR2) response to Antioxidant Response Elements (ARE) (AID 2282992);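 for AC50: reporter mRNA level measured by RT-PCR and capillary electrophoresis fluorescence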
- experimentalContext: HepG2 Attagene ARE/NRF2 reporter, transcription factor activity; actives raise or lower the signal
The source made the active and inactive calls. Rule for the calls: active = hit-call score of the fitted dose curve at least 0.9, where 1 is the maximum; inactive = score below 0.9.
endpointLabel: AC50

CCON=C(CC)C1=C(O)CC(c2c(C)cc(C)cc2C)CC1=O (stereo unspecified) :: inactive
CC(C)C1(C)N=C(c2nc3ccccc3cc2C(=O)O)NC1=O (stereo unspecified) :: inactive
Cc1c(F)c(F)c(COC(=O)C2C(/C=C(\Cl)C(F)(F)F)C2(C)C)c(F)c1F (stereo unspecified) :: inactive
CCc1nn(C)c(C(=O)NCc2ccc(C(C)(C)C)cc2)c1Cl :: 214 nM (active)
C#CCOS(=O)OC1CCCCC1Oc1ccc(C(C)(C)C)cc1 (stereo unspecified) :: 1190 nM (active)

// switching to the query molecule
Given the molecule COc1nc(C)nc(NC(=O)NS(=O)(=O)c2ccccc2Cl)n1 , what is its reported AC50?
inactive

Data credit: PubChem BioAssay (EPA / NIEHS)
